Values compiled from patent US20250027068.

- system_under_test: pooled human IgG (human IgG1, 2, 3 and 4)
measured_attribute: Enzyme Activity Endpoint Assay (purified): Fab′2 (ng/µL)
Give the value, in units of ng/µL, as a plain number.

# input Enzyme Activity Endpoint Assay (purified): Fab′2 lookup needed for PRT-605 (protein) MQITSVWTKGVTPLTPEQFRYNNEDVIHAPYLAHQGWYDITKAFDGKDNLLCGAATAGNMLHWWFEQNKTEIEAYLSKYGDTQKIIFNNQELFDLKAAIDTKDSQTNSQLFNYFRDKAFPNLSARQLGVMPDLVLDMFINGYYLNVFKTQSTDVNRPYQDKDKRGGIFDAVFTRGDQTTLLTARHDLKNKGLNDISTIIKQELTEGRALALSHTYANVSISHVINLWGADFNAEGNLEAIYVTDSDANASIGMKKYFVGINAHGHVAISAKKIEGENIGAQVLGLFTLSSGKEIWQKLSLEHHHHHH , thanks.
# output 617
